# procedure.summary: Preliminary pharmacokinetics in trial 1403-0001 (Arm A D1 q3w, Arm B D1 D8 q4w)
# Assay type: in vivo, human
# measurement.setup: human, plasma, oral, 45 mg, Arm A D1 q3w, 45 mg, N=6; read-out: Vz/F, gMean (gCV [%])
measure: Vd/F (L)
Please reply with the bare figure in L and do not write the unit itself.

Incoming: So what's the measured Vd/F for this one? Cc1c(C(=O)O)ccc2c3n(nc12)[C@@H]1[C@H](C3)N(CC2CC2)[C@@]2(C(=O)Nc3cc(Cl)ccc32)[C@H]1c1cccc(Cl)c1F
Outgoing: 35.1

###

# procedure.summary: Preliminary pharmacokinetics in trial 1403-0001 (Arm A D1 q3w, Arm B D1 D8 q4w)
# Type: in vivo, human
# measurement.setup: human, plasma, oral, 60 mg, Arm A D1 q3w, 60 mg, N=6; read-out: AUC0-∞, gMean (gCV [%])
measure: AUC(0-inf) (µM·h)
Please reply with the bare figure in µM·h and do not write the unit itself.

Incoming: So what's the measured AUC(0-inf) for this one? Cc1c(C(=O)O)ccc2c3n(nc12)[C@@H]1[C@H](C3)N(CC2CC2)[C@@]2(C(=O)Nc3cc(Cl)ccc32)[C@H]1c1cccc(Cl)c1F [MDM2-antagonist of formula I]
Outgoing: 163

###

# procedure.summary: Preliminary pharmacokinetics in trial 1403-0001 (Arm A D1 q3w, Arm B D1 D8 q4w)
# Assay type: in vivo, human
# measurement.setup: human, plasma, oral, 10 mg, Day 1, D1 D8 q4w (Arm B), gMean, N=3; read-out: Vz/F
measure: Vd/F

Incoming: So what's the measured Vd/F for this one? Cc1c(C(=O)O)ccc2c3n(nc12)[C@@H]1[C@H](C3)N(CC2CC2)[C@@]2(C(=O)Nc3cc(Cl)ccc32)[C@H]1c1cccc(Cl)c1F
Outgoing: 24.5 L

Where do the numbers come from? From patent US20230058171A1.
